Some compounds, each annotated with its measured inhibition.
- assayed.target: Autotaxin (Homo sapiens) (UniProt Q13822);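 note: activity read as cleavage of a fluorescent lysophosphatidylcholine analog by autotaxin expressed in the cells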
- reported.conditions: MDA-MB-435, at 10 µM
- Description: Inhibition of human autotaxin expressed in MDA-MB-435 cells assessed as fluorescent lysophosphatidyl choline analog hydrolysis at 10 uM

O=C(O)c1ccc2c(c1)C(=O)N(c1cccc(-c3nc4ccccc4c(=O)o3)c1)C2=O | 71%

Q. Query inhibition on Autotaxin (Homo sapiens) (UniProt Q13822) for CC(C)C(=O)NC(=S)Nc1ccc(N2CCOCC2)cc1
A. 80%

Q. Query inhibition on Autotaxin (Homo sapiens) (UniProt Q13822) for O=C(c1ccc2c(c1)C(=O)N(c1cccc3ccccc13)C2=O)c1ccc2c(c1)C(=O)N(c1cccc3ccccc13)C2=O
A. 59%

Q. Query inhibition on Autotaxin (Homo sapiens) (UniProt Q13822) for Cc1cc(=O)oc2c(/C=N/c3ccc(/N=N/c4ccccc4)cc3)c(O)ccc12
A. 91%

Q. Query inhibition on Autotaxin (Homo sapiens) (UniProt Q13822) for O=C(c1ccc2c(c1)C(=O)N(Cc1ccccc1)C2=O)c1ccc2c(c1)C(=O)N(Cc1ccccc1)C2=O
A. 67%

Q. Query inhibition on Autotaxin (Homo sapiens) (UniProt Q13822) for O=C(Cc1ccccc1)Nc1cccc(N2C(=O)c3ccc(C(=O)O)cc3C2=O)c1
A. 74%
